- Tested on: HCT^−/− cells
- Experimental protocol: MTT cytotoxicity assay, HCT^−/− (p53 neg)
- Format: cell-based
- Applied conditions: 48 h
Experimental readout: IC50

| Compound | Experimental readout | Readout value |
| --- | --- | --- |
| COc1ccc(C2=N[C@@H](c3ccc(Cl)cc3)[C@@H](c3ccc(Cl)cc3)N2C(=O)N2CCNC(=O)C2)c(OC(C)C)c1 [Nutlin-3a, reference compound] | IC50 | > 100 µM |
| CN1C[C@H](c2ccccc2Cl)[C@]2(NC(=S)N(c3ccc(Cl)cc3)C2=O)[C@]12C(=O)Nc1ccc(Cl)cc12 (racemic) | IC50 | > 100 µM |
| CN1C[C@H](c2ccccn2)[C@]2(NC(=S)N(c3ccccc3)C2=O)[C@]12C(=O)Nc1ccc(Cl)cc12 (racemic) | IC50 | > 100 µM |

====

- Tested on: HCT^−/− cells
- Experimental protocol: MTT cytotoxicity assay, HCT^−/− (p53 neg)
- Type: cell-based
- Applied conditions: 48 h
pIC50: −log10 of the molar value.
Listing of entries alongside the reported pIC50.

| Compound | pIC50 |
| --- | --- |
| CN1CC(c2ccc(Cl)cc2)C2(NC(=S)N(c3ccc(O)cc3)C2=O)C12C(=O)Nc1ccccc12 (stereo not drawn) | < 4.00 |
| CCOc1ccc(N2C(=O)[C@]3(NC2=S)[C@@H](c2ccc(F)cc2)CN(C)[C@@]32C(=O)Nc3ccc(Br)cc32)cc1 (racemic) | < 4.00 |
| CN1C[C@H](c2ccc(Cl)cc2)[C@]2(NC(=S)N(c3ccc(F)c(Cl)c3)C2=O)[C@]12C(=O)Nc1ccc(Cl)cc12 (racemic) | < 4.00 |
| CC(c1ccccc1)N1C(=O)C2(NC1=S)C(c1ccccc1Cl)CN(C)C21C(=O)Nc2ccc(Br)cc21 (mixture of isomers) | < 4.00 |
| CN1C[C@H](c2ccc(Cl)c(Cl)c2)[C@]2(NC(=S)N(c3ccccc3)C2=O)[C@]12C(=O)Nc1ccc(Br)cc12 (racemic) | 5.06 |
| CCOc1ccc(N2C(=O)[C@]3(NC2=S)[C@@H](c2ccc(Cl)c(Cl)c2)CN(C)[C@@]32C(=O)Nc3ccccc32)cc1 (racemic) | < 4.00 |

====

- Tested on: HCT^−/− cells
- Experimental protocol: MTT cytotoxicity assay, HCT^−/− (p53 neg)
- Assay type: cell-based
- Applied conditions: 48 h
Listing of entries alongside the reported IC50.
Experimental readout: IC50

| Compound | Experimental readout | Readout value |
| --- | --- | --- |
| CN1C[C@H](c2ccccc2Cl)[C@]2(NC(=S)N(c3ccc(O)cc3)C2=O)[C@]12C(=O)Nc1ccccc12 (racemic) | IC50 | > 100 µM |
| CN1C[C@H](c2ccccc2Br)[C@]2(NC(=S)N(c3ccccc3)C2=O)[C@]12C(=O)Nc1ccccc12 (racemic) | IC50 | > 100 µM |
| COc1ccc(C2CN(C)C3(C(=O)Nc4ccc(Cl)cc43)C23NC(=S)N(c2ccc(Cl)cc2)C3=O)cc1OC (stereo not shown) | IC50 | > 100 µM |
| CN1C[C@H](c2ccc(Cl)cc2)[C@]2(NC(=S)N(c3ccccc3)C2=O)[C@]12C(=O)Nc1ccc(Br)cc12 (racemic) | IC50 | > 100 µM |
| CN1C[C@H](c2ccc(Cl)cc2)[C@]2(NC(=S)N(c3ccccc3)C2=O)[C@]12C(=O)Nc1ccc(Cl)cc12 (racemic) | IC50 | > 100 µM |
| C#CCOc1ccc(N2C(=O)[C@]3(NC2=S)[C@@H](c2ccc(Cl)cc2)CN(C)[C@@]32C(=O)Nc3ccccc32)cc1 | IC50 | > 100 µM |
| CN1C[C@H](c2ccc(Cl)cc2)[C@]2(NC(=S)N(c3ccc(O)cc3)C2=O)[C@]12C(=O)Nc1ccc(Cl)cc12 (racemic) | IC50 | > 100 µM |
| CN1C[C@H](c2ccccn2)[C@]2(NC(=S)N(c3ccccc3)C2=O)[C@]12C(=O)Nc1ccc(Br)cc12 (racemic) | IC50 | 7.6 µM |
| COc1ccc([C@H]2CN(C)[C@@]3(C(=O)Nc4ccccc43)[C@@]23NC(=S)N(c2ccc(F)c(Cl)c2)C3=O)cc1OC (racemic) | IC50 | > 100 µM |
| CC(c1ccccc1)N1C(=O)C2(NC1=S)C(c1ccc(Cl)cc1)CN(C)C21C(=O)Nc2ccc(Cl)cc21 (mixture of isomers) | IC50 | > 100 µM |
| CN1C[C@H](c2ccncc2)[C@]2(NC(=S)N(c3ccccc3)C2=O)[C@]12C(=O)Nc1ccc(Cl)cc12 (racemic) | IC50 | > 100 µM |
| CN1C[C@H](c2ccccc2Cl)[C@]2(NC(=S)N(c3ccccc3)C2=O)[C@]12C(=O)Nc1ccccc12 (racemic) | IC50 | 23.1 µM |
| CCc1ccc([C@H]2CN(C)[C@@]3(C(=O)Nc4ccccc43)[C@@]23NC(=S)N(c2ccc(F)c(Cl)c2)C3=O)cc1 (racemic) | IC50 | 6.5 µM |
| CCOc1ccc(N2C(=O)[C@]3(NC2=S)[C@@H](c2ccc(F)cc2)CN(C)[C@@]32C(=O)Nc3ccccc32)cc1 (racemic) | IC50 | > 100 µM |
| CN1CC(c2ccc(Cl)cc2)C2(NC(=S)N(c3ccc(O)cc3)C2=O)C12C(=O)Nc1ccc(Br)cc12 (stereo not shown) | IC50 | > 100 µM |
| COc1ccc(N2C(=O)[C@]3(NC2=S)[C@@H](c2cccc(Cl)c2)CN(C)[C@@]32C(=O)Nc3ccc(Br)cc32)cc1 (racemic) | IC50 | > 100 µM |
| C#CCN1C(=O)[C@]2(c3ccccc31)N(C)C[C@H](c1cccc(Cl)c1)[C@]21NC(=S)N(c2ccc(OC)c(Cl)c2)C1=O | IC50 | > 100 µM |
| CN1C[C@H](c2ccccc2)[C@]2(NC(=S)N(c3ccccc3)C2=O)[C@]12C(=O)Nc1ccc(Br)cc12 (racemic) | IC50 | 12.5 µM |
| COc1ccc(N2C(=O)[C@]3(NC2=S)[C@@H](c2cccc(Cl)c2)CN(C)[C@@]32C(=O)Nc3ccccc32)cc1 (racemic) | IC50 | > 100 µM |
| COc1ccc([C@H]2CN(C)[C@@]3(C(=O)Nc4ccc(Br)cc43)[C@@]23NC(=S)N(c2ccc(O)cc2)C3=O)cc1OC (racemic) | IC50 | > 100 µM |
| CN1C[C@H](c2ccncc2)[C@]2(NC(=S)N(c3ccccc3)C2=O)[C@]12C(=O)Nc1ccc(Br)cc12 (racemic) | IC50 | > 100 µM |
| CCOc1ccc(N2C(=O)[C@]3(NC2=S)[C@@H](c2ccc(Cl)cc2)CN(C)[C@@]32C(=O)Nc3ccccc32)cc1 (racemic) | IC50 | > 100 µM |
| CN1C[C@H](c2cccc(C=O)c2)[C@]2(NC(=S)N(c3ccccc3)C2=O)[C@]12C(=O)Nc1ccc(Cl)cc12 (racemic) | IC50 | > 100 µM |
| C#CCOc1ccc([C@H]2CN(C)[C@@]3(C(=O)Nc4ccc(Br)cc43)[C@@]23NC(=S)N(c2ccc(OCC)cc2)C3=O)cc1 (racemic) | IC50 | > 100 µM |
| COc1ccc([C@H]2CN(C)[C@@]3(C(=O)Nc4ccccc43)[C@@]23NC(=S)N(c2ccc(F)c(Cl)c2)C3=O)cc1 (racemic) | IC50 | > 100 µM |

====

- System: HCT^wt cells
- Experimental protocol: MTT cytotoxicity assay, HCT^wt (p53 pos)
- Format: cell-based
- Applied conditions: 48 h
pIC50: −log10 of the molar value.
Listing of entries alongside the reported pIC50.

| Compound | Lt gt eq | pIC50 |
| --- | --- | --- |
| CN1C[C@H](c2ccccc2Cl)[C@]2(NC(=S)N(c3ccccc3)C2=O)[C@]12C(=O)Nc1ccc(Cl)cc12 (racemic) [Compound 11] | < | 4.00 |
| CN1C[C@H](c2ccncc2)[C@]2(NC(=S)N(c3ccccc3)C2=O)[C@]12C(=O)Nc1ccccc12 (racemic) [Compound 19] | < | 4.00 |
| CN1C[C@H](c2ccccn2)[C@]2(NC(=S)N(c3ccccc3)C2=O)[C@]12C(=O)Nc1ccc(Cl)cc12 (racemic) [Compound 18] | = | 4.22 |
| COc1ccc([C@H]2CN(C)[C@@]3(C(=O)Nc4ccccc43)[C@@]23NC(=S)N(c2ccc(F)c(Cl)c2)C3=O)cc1OC (racemic) [Compound 44] | = | 4.46 |
| CN1C[C@H](c2cccc(Cl)c2)[C@]2(NC(=S)N(c3ccccc3)C2=O)[C@]12C(=O)Nc1ccc(Br)cc12 (racemic) [Compound 15] | < | 4.00 |
| CN1C[C@H](c2cccc(Cl)c2)[C@]2(NC(=S)N(c3ccccc3)C2=O)[C@]12C(=O)Nc1ccc(Cl)cc12 (racemic) [Compound 23] | = | 4.29 |

The reported numbers originate from paper PMC9919490.
